molecular target: T1, rh-PD-1 recombinant protein (human, UniProt Q15116 25-170, limits assumed); assay: ELISA on PD-1 protein
T1 construct: also called human-derived PD-1; PD-1 protein
T1 sequence (Q15116 25-170 limits assumed): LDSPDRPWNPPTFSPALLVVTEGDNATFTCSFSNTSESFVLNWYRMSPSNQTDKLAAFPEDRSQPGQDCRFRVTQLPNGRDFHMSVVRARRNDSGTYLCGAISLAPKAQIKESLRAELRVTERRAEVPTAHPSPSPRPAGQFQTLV
Measured pEC50 accompanies every entry in the list below.
// returns pEC50 (minus log10 of molar concentration), number only

# count of solved cases: 2
H1L1 (antibody, V domains shown, also called original antibody 1 (heavy chain 1, light chain 1)) VH: QGQLQQSGAELVRPGASVTLTCKASGYTFTDYEMHWVKQTPIHGLEWIGVIESETGGTAYNQKFKGKAKLTADKSSSTAYMELRSLTSEDSAVYYCTREGITTVATTYYWYFDVWGTGTTVTVSS VL: DVLMTQTPLSLPVSLGDQASISCRSSQSIVHSNGNTYLEWYLQKPGQSPELLIYKVYNRFSGVPDRFSGSGSGTDFTLKISRVEAEDLGVYYCFQGSHVPFTFGSGTKLEIK ... 9.47
H10L1 (antibody, V domains shown, also called recombinant antibody H10L1 (heavy chain 10, light chain 1)) VH: QVQLQQSGAELVRPGASVTLSCKASGYTFTDYEMHWVKQTPVHGLEWIGAIDPETGGAAYNQKFKGKAILTADKSSSTAYMELRSLTSEDSAVYYCTREGITTSVVTYYWYFDVWGTGTTVTVSS VL: DVLMTQTPLSLPVSLGDQASISCRSSQSIVHSNGNTYLEWYLQKPGQSPELLIYKVYNRFSGVPDRFSGSGSGTDFTLKISRVEAEDLGVYYCFQGSHVPFTFGSGTKLEIK ... 9.28

Alright, here's another binder for you.
Memo: H1L10 (antibody, V domains shown, also called recombinant antibody H1L10 (heavy chain 1, light chain 10)) VH: QGQLQQSGAELVRPGASVTLTCKASGYTFTDYEMHWVKQTPIHGLEWIGVIESETGGTAYNQKFKGKAKLTADKSSSTAYMELRSLTSEDSAVYYCTREGITTVATTYYWYFDVWGTGTTVTVSS VL: DVLMTQTPLSLPVSLGDQASISCRSSQSIVHSNGNTYLEWYLQKPGQSPKLLIYKVSNRFSGVPDRFSGSGSGTDFTLRISRVEPEDLGVYYCFQGSHVPLTFGSGTKLEIK , reported pEC50: 9.57

Recorded values, source patent US20190023782A1.
